Source listed as patent US20120264685A1.

# testedOn: human glucagon receptor (human, UniProt P47871 26-477)
# Sequence (P47871 26-477): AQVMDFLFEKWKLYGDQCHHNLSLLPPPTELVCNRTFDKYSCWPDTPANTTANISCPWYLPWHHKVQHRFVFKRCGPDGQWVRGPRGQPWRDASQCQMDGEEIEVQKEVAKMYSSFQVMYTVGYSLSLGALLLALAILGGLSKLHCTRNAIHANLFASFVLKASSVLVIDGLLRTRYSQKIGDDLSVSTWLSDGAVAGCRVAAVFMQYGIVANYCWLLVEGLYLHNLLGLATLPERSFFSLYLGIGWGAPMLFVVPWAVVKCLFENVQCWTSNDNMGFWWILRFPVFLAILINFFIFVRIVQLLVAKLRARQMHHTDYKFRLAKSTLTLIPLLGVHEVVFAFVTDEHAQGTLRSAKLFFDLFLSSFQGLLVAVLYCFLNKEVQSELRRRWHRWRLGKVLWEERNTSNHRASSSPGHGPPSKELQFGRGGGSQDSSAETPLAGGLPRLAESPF
# assayDetails: cell-based or functional assay
Where no end group is shown, it is not given here. [ ]: non-standard residue; d: D form. αMePhe(2,6-F2) = C[C@](N)(Cc1c(F)cccc1F)C(=O)O; αMePhe(2-F) = C[C@](N)(Cc1ccccc1F)C(=O)O; αMeBip(OMe) = alpha-methylated Bip(OMe); hhPhe = N[C@@H](CCCc1ccccc1)C(=O)O; αMeD = C[C@](N)(CC(=O)O)C(=O)O; αMeP = C[C@@]1(C(=O)O)CCCN1; Aib = CC(C)(N)C(=O)O
attributeMeasured: cAMP production (pmol/ml/µg prt) with saturated glucagon peptide, at 1 nM

>  <binder>
VH[Aib]QGT[αMePhe(2-F)]TSD[αMeBip(OMe)][hhPhe] (not fully specified (C-terminus); printed as VH-Aib-QGT-(αMe-2FPhe)-TSD-(αMe-Bip(OMe))-(APPA)) [Seq. ID. No. 19]

>  <valueReported>
15

$$$$

[1] VVH[Aib]EGT[αMePhe(2,6-F2)]TSD[αMeBip(OMe)][hhPhe]-NH2 [Seq. ID. No. 227]
[2] VH[Aib]EGT[αMePhe(2-F)]TSD[αMeBip(OMe)][hhPhe]-NH2 [Seq. ID. No. 23]
[3] VH[αMeP]EGT[αMePhe(2,6-F2)]TS[αMeD][αMeBip(OMe)][hhPhe] (not fully specified (C-terminus)) [Seq. ID. No. 80]
[in] Arrange these 3 binders in increasing order of cAMP production (pmol/ml/µg prt) with saturated glucagon peptide, at 1 nM. Reply with the item labels sorted in the order that was asked for.
[out] 3, 2, 1
